- Test system: AsPC-1 cells
- ASSAY PROCEDURE: MTS viability assay, AsPC-1
- Type: cell-based
- PROTOCOL CONDITIONS: Homo sapiens, ASPC1, read-out: 500 nM 7rh + Gem Avg IC50s Plastic, AsPC-1, plastic; fixed 500 nM 7rh with gemcitabine titration
pIC50: −log10 of the molar value.
PROPERTY: pIC50

For the compound Nc1ccn([C@@H]2O[C@H](CO)[C@@H](O)C2(F)F)c(=O)n1 , what pIC50 is on record? ≥ 8.70

---

- MEASURED ON: DDR2 (Homo sapiens (Human), UniProt Q16832)
- Sequence (Q16832 22-855): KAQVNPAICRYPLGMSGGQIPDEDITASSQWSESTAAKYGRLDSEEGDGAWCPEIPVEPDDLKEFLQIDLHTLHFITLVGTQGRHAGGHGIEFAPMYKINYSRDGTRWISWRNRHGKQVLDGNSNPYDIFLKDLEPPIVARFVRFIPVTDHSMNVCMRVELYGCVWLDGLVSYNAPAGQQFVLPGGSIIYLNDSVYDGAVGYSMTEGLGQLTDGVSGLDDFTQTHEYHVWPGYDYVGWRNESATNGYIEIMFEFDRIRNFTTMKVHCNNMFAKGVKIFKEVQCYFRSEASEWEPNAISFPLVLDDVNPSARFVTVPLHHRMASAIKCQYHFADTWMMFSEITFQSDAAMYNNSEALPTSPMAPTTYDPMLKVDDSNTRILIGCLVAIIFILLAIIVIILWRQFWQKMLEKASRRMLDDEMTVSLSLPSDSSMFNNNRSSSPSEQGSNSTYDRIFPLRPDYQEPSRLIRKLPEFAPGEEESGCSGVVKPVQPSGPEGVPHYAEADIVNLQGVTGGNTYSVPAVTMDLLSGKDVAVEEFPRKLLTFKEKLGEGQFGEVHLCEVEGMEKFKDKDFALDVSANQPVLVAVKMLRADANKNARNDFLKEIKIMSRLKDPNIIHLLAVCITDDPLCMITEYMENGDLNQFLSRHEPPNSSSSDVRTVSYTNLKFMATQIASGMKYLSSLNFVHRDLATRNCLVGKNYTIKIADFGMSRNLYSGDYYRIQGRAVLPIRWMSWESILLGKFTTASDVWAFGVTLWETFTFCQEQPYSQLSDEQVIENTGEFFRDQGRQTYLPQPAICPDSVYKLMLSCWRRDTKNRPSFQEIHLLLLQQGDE
- ASSAY PROCEDURE: LanthaScreen Eu kinase activity assay, DDR2
- Assay type: biochemical
- PROTOCOL CONDITIONS: 100 nM ATP; cells printed in μM
Lab note - cut at 2 µM for IC50: 1 (yes) if strictly below, 0 (no) if not.

These solved cases illustrate the format of a correct answer.
>>> assigned_category("CC1CN(c2cncnc2)Cc2cc(C(=O)Nc3cc(N4CCN(C)CC4)cc(C(F)(F)F)c3)ccc21 (stereo not shown)")
"0 (no)"
>>> assigned_category("CC1CN(c2cncnc2)Cc2cc(C(=O)Nc3cc(CN(C)CCN(C)C)cc(C(F)(F)F)c3)ccc21 (stereo not shown)")
"1 (yes)"
>>> assigned_category("CCc1cc(CN2CCN(C)CC2)cc(NC(=O)c2ccc3c(c2)CN(c2cncnc2)CC3C)c1 (stereo not shown)")
"1 (yes)"
>>> assigned_category("CC1CN(c2cncnc2)Cc2cc(C(=O)Nc3cccc(C(F)(F)F)c3)ccc21 (stereo not shown)")
"0 (no)"
>>> assigned_category("CC1CN(c2cncnc2)Cc2cc(C(=O)Nc3cc(CN4CCN(C)CC4)c(F)c(C(F)(F)F)c3)ccc21 (stereo not shown)")
"1 (yes)"
>>> assigned_category("CC1CN(c2cncnc2)Cc2cc(C(=O)Nc3cc(CN4CCCCC4)cc(C(F)(F)F)c3)ccc21 (stereo not shown)")
"0 (no)"

--- query ---
Check if IC50 falls below 2 µM for CN1CCN(Cc2cc(NC(=O)c3ccc4c(c3)CN(c3cncnc3)CC4(C)C)cc(C(F)(F)F)c2)CC1 . 0 (no)

---

- MEASURED ON: Bcr-Abl
- Sequence (P00519 whole entry): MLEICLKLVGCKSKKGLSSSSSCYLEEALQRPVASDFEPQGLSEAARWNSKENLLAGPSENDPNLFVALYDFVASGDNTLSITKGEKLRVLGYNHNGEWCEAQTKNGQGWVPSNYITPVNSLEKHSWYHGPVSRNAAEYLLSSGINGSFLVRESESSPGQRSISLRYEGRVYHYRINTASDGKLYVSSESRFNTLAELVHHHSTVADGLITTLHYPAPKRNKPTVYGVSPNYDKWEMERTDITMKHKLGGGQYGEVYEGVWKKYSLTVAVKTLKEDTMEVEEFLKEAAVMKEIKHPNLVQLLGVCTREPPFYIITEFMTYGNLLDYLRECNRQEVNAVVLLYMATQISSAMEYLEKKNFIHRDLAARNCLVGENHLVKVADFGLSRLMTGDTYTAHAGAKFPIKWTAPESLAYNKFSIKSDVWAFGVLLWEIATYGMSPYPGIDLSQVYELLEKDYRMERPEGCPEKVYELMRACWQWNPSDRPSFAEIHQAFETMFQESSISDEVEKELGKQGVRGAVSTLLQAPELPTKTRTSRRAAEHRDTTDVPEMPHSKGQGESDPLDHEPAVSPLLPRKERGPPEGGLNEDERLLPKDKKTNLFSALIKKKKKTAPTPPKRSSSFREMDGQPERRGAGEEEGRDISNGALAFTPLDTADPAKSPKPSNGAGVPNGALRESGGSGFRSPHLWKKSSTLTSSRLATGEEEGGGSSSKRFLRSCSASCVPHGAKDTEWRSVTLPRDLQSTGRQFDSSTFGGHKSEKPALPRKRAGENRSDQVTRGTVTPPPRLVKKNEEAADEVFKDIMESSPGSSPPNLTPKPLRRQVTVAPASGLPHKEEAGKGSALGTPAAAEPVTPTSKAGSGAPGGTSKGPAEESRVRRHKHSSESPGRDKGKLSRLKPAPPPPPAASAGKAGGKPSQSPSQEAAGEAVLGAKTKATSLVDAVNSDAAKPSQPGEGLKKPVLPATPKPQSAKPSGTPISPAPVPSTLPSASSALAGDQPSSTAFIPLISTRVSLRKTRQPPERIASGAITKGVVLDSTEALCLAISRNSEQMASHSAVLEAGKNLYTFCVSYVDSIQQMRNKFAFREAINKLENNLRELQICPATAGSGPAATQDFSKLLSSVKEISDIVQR
- ASSAY PROCEDURE: FRET-based Z'-Lyte kinase assay, Abl
- Type: biochemical
- PROTOCOL CONDITIONS: 10 μM ATP; cells printed in μM
PROPERTY: IC50

These recorded examples may help you get a feel for the data.
>>> reported_measurement("CC1CN(c2cncnc2)Cc2cc(C(=O)Nc3cc(CN4CCN(C5CCCCC5)CC4)cc(C(F)(F)F)c3)ccc21 (stereo not shown)")
"> 10 µM"
>>> reported_measurement("CC1CN(c2cncnc2)Cc2cc(C(=O)Nc3cc(CN4CCCN(C)CC4)cc(C(F)(F)F)c3)ccc21 (stereo not shown)")
"> 10 µM"
>>> reported_measurement("CC1CN(c2cncnc2)Cc2cc(C(=O)Nc3cc(CN4CCSCC4)cc(C(F)(F)F)c3)ccc21 (stereo not shown)")
"> 10 µM"
>>> reported_measurement("CC(C)c1cc(CN2CCN(C)CC2)cc(NC(=O)c2ccc3c(c2)CN(c2cncnc2)CC3C)c1 (stereo not shown)")
"7.2 µM"

// each listed compound needs a value for IC50
1. CC1CN(c2cncnc2)Cc2cc(C(=O)Nc3cc(CN4CCOCC4)cc(C(F)(F)F)c3)ccc21 (stereo not shown)
2. CC1CN(c2cncnc2)Cc2cc(C(=O)Nc3cc(CCN4CCN(C)CC4)cc(C(F)(F)F)c3)ccc21 (stereo not shown)
3. CCc1cc(CN2CCN(C)CC2)cc(NC(=O)c2ccc3c(c2)CN(c2cncnc2)CC3C)c1 (stereo not shown)
4. CC1CN(c2cncnc2)Cc2cc(C(=O)Nc3cc(CN4CCN(C)CC4)cc(C4CCCCC4)c3)ccc21 (stereo not shown)
5. CCN1CCN(Cc2cc(NC(=O)c3ccc4c(c3)CN(c3cncnc3)CC4C)cc(C(F)(F)F)c2)CC1 (stereo not shown)
6. CN1CCN(Cc2cc(NC(=O)c3ccc4c(c3)CN(c3cncnc3)CC4(C)C)cc(C(F)(F)F)c2)CC1
7. CC1CN(c2cncnc2)Cc2cc(C(=O)Nc3cccc(C(F)(F)F)c3)ccc21 (stereo not shown)

> 10 µM
> 10 µM
> 10 µM
> 10 µM
> 10 µM
> 10 µM
> 10 µM

Provide the reported IC50 of each entry below, same order.
1. CC1CN(c2cncnc2)Cc2cc(C(=O)Nc3cc(CN(C)C)cc(C(F)(F)F)c3)ccc21 (stereo not shown)
2. CC1CN(c2cncnc2)Cc2cc(C(=O)Nc3cc(N4CCN(C)CC4)cc(C(F)(F)F)c3)ccc21 (stereo not shown)
3. CC1Cc2ccc(C(=O)Nc3cc(CN4CCN(C)CC4)cc(C(F)(F)F)c3)cc2CN1c1cncnc1 (stereo not shown)
4. CC1CN(c2cncnc2)Cc2cc(C(=O)Nc3cc(CN4CCCC4)cc(C(F)(F)F)c3)ccc21 (stereo not shown)

["> 10 µM", "> 10 µM", "> 10 µM", "> 10 µM"]

What value of IC50 has been recorded for this entry: CC1CN(c2cncnc2)Cc2cc(C(=O)Nc3cc(CN4CCCCC4)cc(C(F)(F)F)c3)ccc21 (stereo not shown) > 10 µM

Each recorded value in this set is attributed to patent US10370360B2.
